I'd be grateful if you could share measured TGI for these entries.
tested on: BT-549 breast; assay: NCI tumour cell line growth inhibition, 48 h

Task: Recorded TGI of O=C1CSC2(CC(/C=C/c3cccc([N+](=O)[O-])c3)=NN2c2cccc(S(=O)(=O)O)c2)N1c1nc2ccccc2s1 (stereo not given) , please.
Output: 32.7 µM

Task: Recorded TGI of Cc1ccc(/C(C#N)=C/c2cccc([N+](=O)[O-])c2)cc1 , please.
Output: > 100 µM

Task: Recorded TGI of O=C(O)CCC(=O)c1ccc2sc3ccccc3c2c1 , please.
Output: > 100 µM

Task: Recorded TGI of OCCN(CCO)c1ncnc2nc[nH]c12 , please.
Output: > 100 µM

Task: Recorded TGI of O=C(CC1(O)C(=O)N(Cc2ccccc2)c2ccccc21)c1ccc(C(=O)NCC2CCC3(CC2)OOC2(CCCCC2)OO3)cc1 (stereo not given) , please.
Output: 4.03 µM

---

tested on: MDA-MB-231 breast; assay: NCI tumour cell line growth inhibition, 48 h; in the data active means GI50 below about 0.43 µM; inactive means the rest
Form entry, call: pick from active, inactive

Task: Test call, this compound: c1ccc(-c2nc(N3CCNCC3)c3oc(-c4ccccc4)nc3n2)cc1
Output: inactive

Task: Test call, this compound: CSc1nc2sc3c(c2c(=O)n1-c1ccc(C(C)C)cc1)CCC(=O)C3
Output: inactive

Task: Test call, this compound: CC1=C(CC(=O)c2cccc([N+](=O)[O-])c2)C(=O)c2ccccc2C1=O
Output: inactive

Task: Test call, this compound: CC(=O)NCc1cccc(C#Cc2cncnc2Nc2ccc(OCc3cccc(F)c3)c(Cl)c2)c1
Output: inactive

Task: Test call, this compound: Oc1ccc(C(c2ccc(O)cc2)c2ccc(Br)cn2)cc1
Output: inactive

Task: Test call, this compound: C(=N/N(Cc1ccccc1)Cc1ccccc1)/c1ccccc1
Output: inactive

Task: Test call, this compound: CN(CCNCc1ccccn1)CCNCc1ccccn1
Output: inactive

Task: Test call, this compound: c1ccc2cc(-c3n(Cc4ccc5ccccc5n4)c4ccccc4[n+]3Cc3ccc4ccccc4n3)ccc2c1
Output: active

---

test system: HCT-116 colon; experiment: NCI tumour cell line growth inhibition, 48 h; in the data active = GI50 below about 0.43 µM; inactive = the rest
Form entry, call: pick from True for active, False for inactive

Task: Test call, this compound: CC(C)(O)CNc1nc(Nc2ccnc(C(F)(F)F)c2)nc(-c2cccc(C(F)(F)F)n2)n1
Output: False

Task: Test call, this compound: CSc1nc2sc3c(c2c(=O)n1-c1ccc(C(C)C)cc1)CCC(=O)C3
Output: False

Task: Test call, this compound: CC1=C(CC(=O)c2cccc([N+](=O)[O-])c2)C(=O)c2ccccc2C1=O
Output: False

Task: Test call, this compound: N#CC1=C(/N=C/c2ccccc2)Oc2c(ccc3ccccc23)C1c1ccccc1 (stereo not drawn)
Output: False

Task: Test call, this compound: COc1ccc(-c2nc(/C=C3\SC(=NCc4ccccc4)NC3=O)c3ccccn23)cc1
Output: True

Task: Test call, this compound: Cn1cc(C2=C(c3cccc(OC[C@@H](O)CO)c3)C(=O)NC2=O)c2ccccc21
Output: False

Task: Test call, this compound: CCCCCO/N=C\c1c2c(O)c3c(O)c(C)c4c(c3c1O)C(=O)C(C)(O/C=C\C(OC)C(C)C(OC(C)=O)C(C)C(O)C(C)C(O)C(C)/C=C\C=C(\C)C(=O)N2)O4 (stereo not drawn)
Output: False

Task: Test call, this compound: O=C(CCCCCCN1CC(=O)N2[C@@H](c3ccc(Cl)c(Cl)c3)c3[nH]c4ccccc4c3C[C@H]2C1=O)NO
Output: False

---

tested on: OVCAR-4 ovarian; assay: NCI tumour cell line growth inhibition, 48 h
endpoint label: TGI

Task: Recorded TGI of COc1ccc(/C=N/n2c(C)n[nH]c2=O)c(OC)c1 , please.
Output: > 100 µM

Task: Recorded TGI of Oc1c(I)cc(I)c2cccnc12 , please.
Output: > 100 µM

Task: Recorded TGI of O=[N+]([O-])c1ccc(-c2nc3ccc(Cl)cc3[nH]2)cc1 , please.
Output: > 100 µM

Task: Recorded TGI of CN1C(c2ccccc2)CC(=O)C(N)C1c1ccccc1 (stereo not given) , please.
Output: > 100 µM

Task: Recorded TGI of O=C1CSC2(CC(/C=C/c3cccc([N+](=O)[O-])c3)=NN2c2cccc(S(=O)(=O)O)c2)N1c1nc2ccccc2s1 (stereo not given) , please.
Output: 72.1 µM

Task: Recorded TGI of Cn1cc(C2=C(c3cccc(OC[C@@H](O)CO)c3)C(=O)NC2=O)c2ccccc21 , please.
Output: > 25 µM

Task: Recorded TGI of OCCN(CCO)c1ncnc2nc[nH]c12 , please.
Output: > 100 µM

Task: Recorded TGI of COc1cc2c(cc1OCCCCN1CCN(C(=S)SCCC(C#N)(c3ccccc3)c3ccccc3)CC1)N=C[C@@H]1CCCN1C2=O , please.
Output: 17.7 µM

Task: Recorded TGI of CCOC(=O)/C=C/CCO[Si](C)(C)C(C)(C)C , please.
Output: > 100 µM

Task: Recorded TGI of NS(=O)(=O)c1nnc(NS(=O)(=O)C(F)(F)F)s1 , please.
Output: > 100 µM

---

test system: UACC-257 melanoma; experiment: NCI tumour cell line growth inhibition, 48 h
endpoint label: TGI

Task: Recorded TGI of CCC1(O)C(=O)OCc2c1cc1n(c2=O)Cc2cc3c(NC(=O)CN)cccc3nc2-1 (centres undefined) , please.
Output: 24.3 µM

Task: Recorded TGI of CCc1c(C)c(C#N)c(=S)n(C2OC(COC(C)=O)C(OC(C)=O)C(OC(C)=O)C2OC(C)=O)c1-c1ccccc1 (centres undefined) , please.
Output: > 31.6 µM

Task: Recorded TGI of CC12CCC(=O)N1c1ccc([N+](=O)[O-])cc1N2 (centres undefined) , please.
Output: > 100 µM

Task: Recorded TGI of CC1CN=C(N(Cc2ccccc2)C(=O)Nc2ccc(Cl)c(Cl)c2)S1 (centres undefined) , please.
Output: > 100 µM

Task: Recorded TGI of NC(=O)C(=CNC(=S)Nc1ccccc1)C(N)=O , please.
Output: > 100 µM

Task: Recorded TGI of COC(=O)CCCCC(=O)c1c(C)[nH]c(/C=C2\N=C(c3ccc[nH]3)C=C2OC)c1C , please.
Output: 3.33 µM

Task: Recorded TGI of C#CCNC(=O)[C@H](CC)[C@H]1CC[C@H](C)[C@H]([C@@H](C)[C@H](O)[C@H](C)C(=O)[C@H](CC)C2O[C@]3(C=CC(=O)[C@]4(CC[C@@](C)([C@H]5CC[C@](O)(CC)[C@H](C)O5)O4)O3)[C@H](C)C[C@@H]2C)O1 (some centres undefined) , please.
Output: 4.88 µM

Task: Recorded TGI of CC1=NN(c2nc(N)nc(/C(C#N)=C\c3csc([N+](=O)[O-])c3)n2)C(C)(C)C1 , please.
Output: > 100 µM

Task: Recorded TGI of COC(=O)[C@@]1(C(C)CC(=O)O)CCCCC1=O (some centres undefined) , please.
Output: > 100 µM

---

tested on: 786-0 renal; experiment: NCI tumour cell line growth inhibition, 48 h; in the data active = GI50 below about 0.43 µM; inactive = the rest
Form entry, call: pick from active, inactive

Task: Test call, this compound: Cc1cccc2c3c(sc12)C(c1ccc(Cl)cc1)C(C#N)=C(N)O3 (configuration not stated)
Output: inactive

Task: Test call, this compound: C#CCNC(=O)[C@H](CC)[C@H]1CC[C@H](C)[C@H]([C@@H](C)[C@H](O)[C@H](C)C(=O)[C@H](CC)C2O[C@]3(C=CC(=O)[C@]4(CC[C@@](C)([C@H]5CC[C@](O)(CC)[C@H](C)O5)O4)O3)[C@H](C)C[C@@H]2C)O1 (some centres not stated)
Output: inactive

Task: Test call, this compound: CC1=C(CC(=O)c2cccc([N+](=O)[O-])c2)C(=O)c2ccccc2C1=O
Output: inactive

Task: Test call, this compound: COc1ccc(/C=C(\C#N)n2nnc3c(F)cccc32)cc1
Output: inactive

Task: Test call, this compound: Cc1cc(C)nc(SC2=C(Nc3cc(Cl)ccc3O)C(=O)N(Cc3ccccc3)C2=O)n1
Output: inactive

Task: Test call, this compound: CCCCCCNC(=O)Oc1ccc(/C(=C(\C)c2ccc(Cl)cc2)c2ccc(OCCN3CCCCC3)cc2)cc1
Output: inactive

Task: Test call, this compound: Cc1cc(N(CCCNc2ccnc3cc(Cl)ccc23)Cc2ccco2)nc(N2CCN(C)CC2)n1
Output: inactive

Task: Test call, this compound: COC(=O)CCCCC(=O)c1c(C)[nH]c(/C=C2\N=C(c3ccc[nH]3)C=C2OC)c1C
Output: inactive

Task: Test call, this compound: C(=N/N(Cc1ccccc1)Cc1ccccc1)/c1ccccc1
Output: inactive

Task: Test call, this compound: CN(CCNCc1ccccn1)CCNCc1ccccn1
Output: inactive

Task: Test call, this compound: CC1(C)CC(=O)C2=C(C1)OC(N)=C(c1nc(-c3ccccc3)cs1)C2c1ccc(Br)cc1 (configuration not stated)
Output: inactive

Task: Test call, this compound: CC(=O)NCc1cccc(C#Cc2cncnc2Nc2ccc(OCc3cccc(F)c3)c(Cl)c2)c1
Output: inactive

Task: Test call, this compound: COC(=O)c1cncc(/C=C/c2c(C)cc(O)cc2C)c1
Output: inactive

Task: Test call, this compound: COC1C(O)C(CO)OC(OC2C(O)COC(OC3C(C)OC(OC4C(O[C@H]5CC[C@@]6(C)C(CC=C7[C@H]6CCC68C(=O)O[C@@](C)(CCCC(C)C)[C@H]6[C@@H](OC(C)=O)C[C@@]78C)C5(C)C)OCC(OS(=O)(=O)O)C4O)C(OC4OCC(O)C(O)C4O)C3O)C2O)C1O (some centres not stated)
Output: active

Task: Test call, this compound: O=C(CCCCCCN1CC(=O)N2[C@@H](c3ccc(Cl)c(Cl)c3)c3[nH]c4ccccc4c3C[C@H]2C1=O)NO
Output: inactive

Task: Test call, this compound: COc1ncnc(NS(=O)(=O)c2ccc(N=C3C(=O)N(CN4CCN(c5c(F)cc6c(=O)c(C(=O)O)cn(C7CC7)c6c5OC)CC4C)c4ccc(Br)cc43)cc2)c1OC (configuration not stated)
Output: inactive

Task: Test call, this compound: COC1=C(OC)C(=O)C(SC/C=C(\C)CCCC(C)CCCC(C)CCCC(C)C)=CC1=O (configuration not stated)
Output: inactive
